# Assay target: T1, human Type 1 mutCALR on Ba/F3 cells expressing MPL and Type 1 mutCALR (human)
# T1 chain: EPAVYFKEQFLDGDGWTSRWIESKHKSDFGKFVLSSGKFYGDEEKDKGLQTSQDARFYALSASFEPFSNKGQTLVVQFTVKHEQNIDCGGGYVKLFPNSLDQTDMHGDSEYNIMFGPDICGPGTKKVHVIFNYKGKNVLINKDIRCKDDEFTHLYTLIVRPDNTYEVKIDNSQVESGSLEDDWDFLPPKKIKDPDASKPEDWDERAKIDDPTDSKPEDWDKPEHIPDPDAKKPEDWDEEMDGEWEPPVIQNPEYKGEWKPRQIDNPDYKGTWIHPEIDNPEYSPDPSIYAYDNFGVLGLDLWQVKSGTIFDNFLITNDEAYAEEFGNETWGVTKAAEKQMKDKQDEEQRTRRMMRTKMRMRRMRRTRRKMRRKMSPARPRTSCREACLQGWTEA
# Experiment summary: cell-based or functional assay
Observation type: IC50, inhibition of pSTAT5 (µg/mL)
Write the value in µg/mL as a bare number.

Exercise: What value of IC50, inhibition of pSTAT5 has been reported for the following binder? anti-mutCALR antibody clone 16 (antibody, human IgG1, lambda, V domains shown, human IgG1) VH: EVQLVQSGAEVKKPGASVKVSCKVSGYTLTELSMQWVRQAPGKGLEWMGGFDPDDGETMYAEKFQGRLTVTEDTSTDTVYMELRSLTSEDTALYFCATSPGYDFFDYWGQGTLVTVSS VL: SYVLTQPPSVSVAPGKTARITCGGNNTGSKSVHWYQQKPGQAPVLVVYDDSDRPSGIPERFSGSNSGNTATLTINRVEAGDEADYYCQVWDSSNDLLIFGGGTKLTVLG
Solution: 0.028
